Target: biotinylated HRP (Armoracia rusticana, UniProt P00433)
Construct: purchased Roche Diagnostics, Indianapolis, Ind., USA
Sequence (P00433 31-338 limits assumed): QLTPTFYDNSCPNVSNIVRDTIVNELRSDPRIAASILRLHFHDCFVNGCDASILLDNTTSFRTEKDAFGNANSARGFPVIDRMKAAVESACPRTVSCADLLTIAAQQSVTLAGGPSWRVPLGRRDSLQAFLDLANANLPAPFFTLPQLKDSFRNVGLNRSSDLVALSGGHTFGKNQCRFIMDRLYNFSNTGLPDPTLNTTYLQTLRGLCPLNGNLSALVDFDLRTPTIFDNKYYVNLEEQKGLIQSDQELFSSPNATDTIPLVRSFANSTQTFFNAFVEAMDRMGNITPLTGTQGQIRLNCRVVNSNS
Experiment: Model system for selection of SSIA (M280 btn-BSA-AK1-streptavidin particles + Btn-HRP:HRP)
Type: biochemical
Settings: Btn-HRP 1 ng/mL vs 0; SSIA 100 μM
Would you please tag the item met when its S1/S0 is 2 or above, and not met when it is below?

Decide: S1/S0 of Nc1ccccc1O >= 2?
met

// same read-out, input: Cc1c(C)c2c(c(C)c1O)CCC(C)(C(=O)O)O2 (centres unmarked)
met

// same read-out, input: CC1(C)CC(O)CC(C)(C)N1[O]
not met

// same read-out, input: COc1cc(/C=C/C(=O)O)ccc1O
met

// same read-out, input: NNC(=O)c1cccnc1 [Nicotinic Hydrazide]
not met

// same read-out, input: O=c1[nH]c(=O)c2[nH]c(=O)[nH]c2[nH]1
not met

// same read-out, input: COc1ccc2[nH]cc(CCNC(C)=O)c2c1
not met

---

Assign B-HRP250 light intensity to each entry below.
Molecular target: biotinylated HRP (Armoracia rusticana, UniProt P00433)
Construct: purchased Roche Diagnostics, Indianapolis, Ind., USA
Experiment: Model system for selection of SSIA (M280 btn-BSA-AK1-streptavidin particles + Btn-HRP:HRP)
Type: biochemical
Conditions: Btn-HRP 250 ng/mL, total HRP 500 ng/mL; SSIA final 100 μM

B-HRP250 light intensity for Nc1ccccc1O ?
4,008,689

// same read-out, input: N[C@@H](CCC(=O)N[C@@H](CS)C(=O)NCC(=O)O)C(=O)O
9,965,235

// same read-out, input: Cc1c(O)cc2c(c1C)O[C@](C)(CCC[C@H](C)CCC[C@H](C)CCCC(C)C)CC2 [(+)-gamma-Tocopherol, (+)-y-Tocopherol]
10,282,504

// same read-out, input: CCCCCCCCCCCCCCCC(=O)OC[C@H](O)[C@H]1OC(=O)C(O)=C1O [Ascorbic Acid 6-palmitate, L-Ascorbic acid 6-Palmitate]
10,182,411

// same read-out, input: Cl.Nc1ccc(O)cc1O [4-aminoresorcinol HCl, 4-aminoresorcinol hydrochloride]
259,541

// same read-out, input: O=C(O)CCCC[C@@H]1CCSS1 (racemic)
8,847,921

// same read-out, input: Cc1c(C)c2c(c(C)c1O)CCC(C)(C(=O)O)O2 (centres unmarked)
10,794,247

// same read-out, input: CC(=O)N[C@@H](CS)C(=O)O
10,219,869

// same read-out, input: Oc1ccc(Cl)cc1O
1,260,937

// same read-out, input: N[C@@H](CS)C(=O)O
10,190,505

// same read-out, input: COc1cc(C(=O)O)cc(OC)c1O
9,530,979

// same read-out, input: COc1cc(/C=C/C(=O)O)ccc1O
10,244,269

// same read-out, input: Nc1ccc(C(=O)O)cc1O [4-Amino-3-hydroxybenzoic acid, 4-amino-3-hydroxybenzoic acid]
6,403,425

// same read-out, input: COc1ccc2[nH]cc(CCNC(C)=O)c2c1
10,370,061

// same read-out, input: CC1(C)OC[C@@H]([C@H]2OC(=O)C(O)=C2O)O1
8,784,595

// same read-out, input: O=c1[nH]c(=O)c2[nH]c(=O)[nH]c2[nH]1
10,708,733

// same read-out, input: CC1(C)CC(O)CC(C)(C)N1[O]
10,578,104

// same read-out, input: Cc1c(C)c2c(c(C)c1O)CC[C@@](C)(CCC[C@H](C)CCC[C@H](C)CCCC(C)C)O2 (racemic) [(+/−)-alpha-Tocopherol, (±)-a-Tocopherol]
9,628,184

// same read-out, input: NNC(=O)c1cccnc1 [Nicotinic Hydrazide]
7,923,092

// same read-out, input: Oc1ccc(O)c(Cl)c1 [2-chloro-1,4-dihydroxybenzene]
875,831
